# Tested on: UACC-257 melanoma
# method: NCI-60 one-dose screen, 48 h (100 = growth as untreated, 0 = no growth, -100 = all killed)
# details: 10 µM unless noted
Compounds without any hit were thinned out: in the full panel of roughly 83,000, 20% have a hit.
Threshold 90%. growth below it: 1. growth at it or above: 0.

{"molecule": "CC(=[N-])N1CCC[C@@H](Nc2c3ccccc3nc3ccccc23)C1.[Cl][Pt].[NH-]CCC[NH-]", "group": 1}
{"molecule": "O=c1cc(-c2ccc(OCc3ccccc3)cc2)oc2c(I)c(OCc3ccccc3)cc(OCc3ccccc3)c12", "group": 0}
{"molecule": "C(=C\\c1nc2ccccc2[nH]1)/c1nc2ccccc2[nH]1", "group": 1}

# check: growth < 90% for CCc1c(C(=O)N[C@@H]2c3cc(Cl)ccc3CC[C@@H]2O)[nH]c(C)c1C(C)=O
1

# check: growth < 90% for CN(C)c1ccc(/C=N/NC(=O)COc2cc(=O)n(C)c3ccccc23)cc1
0

# check: growth < 90% for Cc1nc(Nc2ccc(NC(=S)Nc3ccccc3)cc2)c2ccccc2n1
0
